Quick reference: log10(Ki) of the listed items.
Biological target: human CYP2A13 (Homo sapiens)
Sequence (Q16696 with tags, fused parts or gaps limits assumed): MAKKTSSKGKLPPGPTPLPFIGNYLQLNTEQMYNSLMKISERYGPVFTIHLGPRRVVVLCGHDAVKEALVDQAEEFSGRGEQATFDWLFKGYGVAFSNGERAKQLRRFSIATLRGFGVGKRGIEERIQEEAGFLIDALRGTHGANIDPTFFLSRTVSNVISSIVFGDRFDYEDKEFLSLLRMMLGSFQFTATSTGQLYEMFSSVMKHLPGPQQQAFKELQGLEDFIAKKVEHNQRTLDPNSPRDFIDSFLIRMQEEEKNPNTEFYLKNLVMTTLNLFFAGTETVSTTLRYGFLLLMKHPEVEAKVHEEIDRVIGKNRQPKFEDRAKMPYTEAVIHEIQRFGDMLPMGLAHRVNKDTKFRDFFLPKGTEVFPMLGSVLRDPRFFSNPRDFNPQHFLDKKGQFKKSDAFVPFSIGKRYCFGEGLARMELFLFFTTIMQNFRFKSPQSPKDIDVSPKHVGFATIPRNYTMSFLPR
Assay: Coumarin metabolism assay
All values: base-10 log of Ki in µM.

Recorded log10(Ki), per entry:
entry_smiles=Clc1ccccc1CN1CCOCC1 assayed_system="human CYP2A13 (Homo sapiens)" result_number=1.60
entry_smiles=Fc1ccccc1CN1CCOCC1 assayed_system="human CYP2A13 (Homo sapiens)" result_number=2.58
entry_smiles=Clc1ccccc1CN1CCSCC1 assayed_system="human CYP2A13 (Homo sapiens)" result_number=1.77
entry_smiles=CCc1ccccc1CN1CCOCC1 assayed_system="human CYP2A13 (Homo sapiens)" result_number=1.23
entry_smiles=Clc1cccc(CN2CCOCC2)c1 assayed_system="human CYP2A13 (Homo sapiens)" result_number=2.41

Problem: Any idea what its log10(Ki) is? The molecule is c1csc(CN2CCOCC2)c1
Result: 2.12

Problem: Likewise for Clc1ccc(CN2CCOCC2)cc1 ?
Result: 2.66
